Item-by-item account of melting point

| compound | melting point |
| --- | --- |
| COc1cc(C(C)=O)ccc1OCCCCCCl | 57 to 58 °C |
| O=C(O)c1cccc2c1C(=O)c1ccccc1S2(=O)=O | 269 to 271 °C |
| CCOC(=O)Nc1cccc(C)c1C(=O)OCC | 38.5 to 39.5 °C |
| CC(C)CC(C(=O)OCc1ccccc1)N1C(=O)C2(CCCN2C(=O)OC(C)(C)C)CC1O (mixture of isomers) | 134 to 135 °C |
| O=C(Nc1ccccc1S(=O)(=O)c1ccccc1)N[C@@H](Cc1ccc(NC(=O)c2ccc(Cl)nc2Cl)cc1)C(=O)O | 207 °C |
| BrCc1ccc2nc(-c3ccccc3)ccc2c1 | 126 to 127 °C |
| Cc1cc(OC(F)(F)C(F)C(F)(F)F)ccc1NC(=O)c1cccc(I)c1 (stereo not given) | 188 °C |
| CCCCc1oc2ccccc2c1-c1ncc(-c2ccc3cc(OCc4nnn[nH]4)ccc3c2)o1 | 238 to 240 °C |
| N#Cc1ccc(N2CCC[C@H]2C(N)=O)c2ccccc12 | 177 to 178 °C |
| CCCCCCCCCCC(O)CNC (stereo not given) | 56 to 57 °C |

---

Item-by-item account of melting point
reported_endpoint: melting point (°C)

| test_smiles | measure_unit | result_operator | measured |
| --- | --- | --- | --- |
| CCN(CC)CCNC(=O)c1ccc(N(S(C)(=O)=O)S(C)(=O)=O)cc1OC | °C | = | 144 |
| Cc1cc(C)c(C#N)c(SSc2ccc([N+](=O)[O-])cc2C(Cl)(Cl)Cl)n1 | °C | = | 132 |
| N#Cc1cnc2cc(F)ccc2c1O | °C | > | 250 |

---

Item-by-item account of melting point

| compound | melting point |
| --- | --- |
| COC(=O)c1cc(F)c(-n2c(=O)[nH]n(C)c2=O)cc1F | 156 °C |
| OC1CSC(Oc2cccn3ncnc23)C(O)C1O (configuration not stated) | 155 °C |
| O=C(C1NCCc2occc21)N1CCCC1 (configuration not stated) | 85 to 86 °C |
| O=C1OCCC1=Cc1ccccc1O | 162 to 164 °C |
| CCOC(=O)/C(=N\OC1(C)CCCCC1)c1csc(N)n1 | 126 °C |
| COc1cccc(-n2cccn2)c1C#N | 93 to 94 °C |
| CCOC(=O)Cc1cc(C)c(C(=O)c2ccc(Cl)c(Cl)c2)n1C | 92 to 93.5 °C |
| C/C(C=O)=C\COc1cccc2ccccc12 | 81.5 to 82.5 °C |
| CC(=O)c1ccc(C=C(C)c2ccc3c(c2)C(C)(C)CCO3)cc1 | 109 to 110 °C |
| CCc1cn(Cc2ccccc2)c(=O)[nH]c1=O | 154 to 155 °C |
| COc1cc(C=CC=O)ccc1OC(C)c1nc(-c2ccccc2)oc1C (configuration not stated) | 152 to 153 °C |
| CCOC(=O)c1c[nH]c2cc(C(=O)NCCc3ccc(Cl)cc3)nn2c1=O | > 300 °C |
| COc1ccc(COCn2cc(Cl)cnc2=O)cc1 | 118 °C |
| C=CCc1c(OCc2ccccc2)ccc2c(=O)ccoc12 | 90 to 92 °C |
| Cc1cc(-c2c(-c3ccc(S(C)(=O)=O)cc3)cnn(-c3ccc(F)c(F)c3)c2=O)ccc1F | 166 to 168 °C |
| COC(=O)c1cc(=O)c2c(C)cc(C)cc2[nH]1 | 227 to 229 °C |
| O=c1c(-c2ccccc2F)c(CNc2ncnc3[nH]cnc23)oc2ccccc12 | 143 to 147 °C |
| CCN1C(=O)C(C)(C)C(=O)N(C)c2cc(CN(CCn3ccc4oc(C)cc4c3=O)Cc3ccccc3C=O)ccc21 | 157 to 158 °C |
| CCOC(=O)c1ccc(-c2cc3c(Nc4ccc(F)c(Cl)c4)ncnc3[nH]2)cc1 | > 300 °C |
| CC(C)(C)n1nnc(Cc2ccc(C(=O)O)cc2)n1 | 139 to 140 °C |
| Nc1c(-c2cc(Cl)ccc2O)c2cc(C(F)(F)F)ccc2[nH]c1=O | 233 to 235 °C |
| O=C(Oc1ccccc1)c1ccccc1S | 135 °C |
| C=CC(=O)Nc1cc2c(N(C(C)=O)c3ccc(F)c(Cl)c3)ncnc2cc1OCCCN1CCOCC1 | 143 °C |
| CC1(C)OC[C@H](COc2nc(S(C)(=O)=O)nc3[nH]nc(-c4ccccc4Cl)c23)O1 | 161 to 162 °C |
| CON(C)S(=O)(=O)c1ccccc1[N+](=O)[O-] | 105 to 106 °C |
| CC(C)c1cccc(C(C)C)c1NS(=O)(=O)CC(=O)O | 153 to 155 °C |
| O=C(Nc1cccc(CC(=O)OCc2ccccc2)c1)NC1C(=O)N(CC(=O)N2CCCC2)c2ccccc2N(c2ccccc2F)C1=O (configuration not stated) | 104 to 106 °C |
| CCN1C(=O)C(C)(C)C(=O)N(C)c2cc(CN(CCn3c(=O)ccc4ccccc43)Cc3cnccc3C)ccc21 | 120 to 121 °C |
| O=Cc1c[nH]c2c1ccc1c3cccc(F)c3[nH]c12 | > 250 °C |
| CC(=O)NCCN1CCN(c2cccccc2=O)CC1 | 117 to 118 °C |
| Nc1nc2ccccc2n1-c1ccc(-c2ccco2)cc1 | 210 to 212 °C |
| O=C(Nc1ccc2ccc(Oc3ccccc3)nc2n1)C1=CSCCS1 | 240 °C |
| Cc1cccc(C)c1CNc1cc(C(=O)N(C)C)cc2c1nc(CO)n2C | 171 to 172 °C |
| CN(C)CCCSc1cccc2c1NC(=O)CC2c1ccccc1 (configuration not stated) | 64 to 66 °C |
| CN([C@H]1CC[C@H](Nc2nccc(-n3nnc4ccccc43)n2)CC1)S(C)(=O)=O | 250 to 252 °C |
| CC(C)c1nc2cc3c(cc2[nH]1)NC(=O)C3(C)C | 282 to 284 °C |
| Cc1ncc2cc(C#N)c(O)nc2n1 | > 200 °C |
| Cn1nc(C(=O)NCc2ccc(Cl)cc2)c(=O)c2cc(CO)ccc21 | 203 to 205 °C |
| c1ccc2c(c1)OCCN1CCOCCN(CCOCC1)CCO2 | 119 to 120 °C |
| CCCc1nn(CC)c(CO)c1Cc1ccc(-c2ccccc2NS(=O)(=O)C(F)(F)F)cc1 | 59 to 64 °C |
| Nn1c(=O)n(-c2cc(Cl)ccc2O)c2ccc(C(F)(F)F)cc21 | 228 to 230 °C |
| CC(=O)c1ccc(S(=O)(=O)NN2CCCCC2)cc1 | 137 to 139 °C |

---

Item-by-item account of melting point

| molecule | melting point |
| --- | --- |
| CC(=O)Nc1cccc2cc(S(=O)(=O)Nc3onc(C)c3C)ccc12 | 210 to 212 °C |
| CC(=O)N1CCN(Cc2cnc(-c3cc4cccc(N(C)S(=O)(=O)c5cccs5)c4[nH]3)s2)CC1 | 177 to 178 °C |
| CC1COP(=O)(Cc2ccc([N+](=O)[O-])cc2)OC1 (stereo not given) | 170 to 171 °C |
| CCCCCCNC(=O)CS(=O)(=O)Nc1c(C(C)C)cccc1C(C)C | 125 to 127 °C |
| Cn1cc(C2=C(c3cn(C)c4cc([N+](=O)[O-])ccc34)C(=O)N(COP(=O)(OCc3ccccc3)OCc3ccccc3)C2=O)c2ccccc21 | 105 to 109 °C |
| COc1cc(CC(=O)NCCOc2ccc(C(=O)O)cc2[N+](=O)[O-])ccc1N(C(N)=O)c1ccccc1C | 112 to 115 °C |
| FC(F)(F)C1(c2cc(Cl)cc(Cl)c2)CC(c2ccc(Br)nc2)=NO1 (stereo not given) | 147 to 148 °C |
| CS(=O)(=O)Oc1ccc(-c2c3ccccc3cc3sc4ccccc4c23)cc1 | 136 to 139 °C |
| Nc1cccc(NCCO)c1[N+](=O)[O-] | 129 °C |
| CS(=O)(=O)Nc1ccc2c(c1)CCC1(CCC(N3CCc4ccccc4C3)CC1)O2 (stereo not given) | 183 to 185 °C |
| C=CCNc1nc(NCC=C(C)C)c2scc(C)c2n1 | 114 to 115 °C |
| COC(=O)c1cc(N2CCCC2)c(Oc2ccccc2)c(S(N)(=O)=O)c1 | 191 °C |
| CN(C)C(=O)c1c(F)cccc1I | 86 to 89 °C |
| COc1nc(N(C)C)nc(CCCCCCCCCCO)c1O | 104 to 105 °C |
| O=c1cc(-c2ccc(O)cc2)oc2ccccc12 | 177 to 180 °C |
| CCOC(=O)c1cnn(C)c1NCc1ccc(-c2ccccc2C#N)cc1 | 107 to 108 °C |
| Cn1c(C(F)(F)F)cc(=O)n(-c2cc(OCC(F)(F)F)c(Cl)cc2F)c1=O | 136 to 138 °C |
| COc1cccc(C(=O)NCCNC(=O)OC(C)(C)C)n1 | 104 to 105 °C |
| CCCCSc1cc(C(=O)OCC#N)cc(S(N)(=O)=O)c1Oc1ccccc1 | 134 to 135 °C |
| COc1cc2c(cc1O)CCN(C(C)=O)C2 | 139 to 140 °C |
